Every entry's value here was drawn from BigSolDB 2.1.

Conditions: in n-pentanol, 298.15 K
Measurement label: solubility (mole fraction)

Requested field: solubility (mole fraction). Item: `CC(C)(C)OC(=O)N[C@@H](CCCN=C(N)N[N+](=O)[O-])C(=O)O` 0.00489

###

Conditions: in sec-butanol, 283.15 K
Measurement label: solubility (mole fraction)

Requested field: solubility (mole fraction). Item: `CC(C)(C)OC(=O)N[C@@H](CCCN=C(N)N[N+](=O)[O-])C(=O)O` 0.00398

###

Settings: in ethyl acetate, 293.15 K
Measurement label: solubility (mole fraction)
// return a plain number; no unit text

Requested field: solubility (mole fraction). Item: `CC(C)(C)OC(=O)N[C@@H](CCCN=C(N)N[N+](=O)[O-])C(=O)O` 0.000955

###

Conditions: in water, 303.15 K
Measurement label: solubility (mole fraction)
// return a plain number; no unit text

Requested field: solubility (mole fraction). Item: `CC(C)(C)OC(=O)N[C@@H](CCCN=C(N)N[N+](=O)[O-])C(=O)O` 0.000471

###

Details: in water, 323.15 K
Measurement label: solubility (mole fraction)
// return a plain number; no unit text

Requested field: solubility (mole fraction). Item: `CC(C)(C)OC(=O)N[C@@H](CCCN=C(N)N[N+](=O)[O-])C(=O)O` 0.000986

###

Conditions: in isopropanol, 318.15 K
Measurement label: solubility (mole fraction)
// return a plain number; no unit text

Requested field: solubility (mole fraction). Item: `CC(C)(C)OC(=O)N[C@@H](CCCN=C(N)N[N+](=O)[O-])C(=O)O` 0.0224

###

Conditions: in water, 288.15 K
Measurement label: solubility (mole fraction)
// return a plain number; no unit text

Requested field: solubility (mole fraction). Item: `CC(C)(C)OC(=O)N[C@@H](CCCN=C(N)N[N+](=O)[O-])C(=O)O` 0.000334

###

Details: in methanol, 303.15 K
Measurement label: solubility (mole fraction)
// return a plain number; no unit text

Requested field: solubility (mole fraction). Item: `CC(C)(C)OC(=O)N[C@@H](CCCN=C(N)N[N+](=O)[O-])C(=O)O` 0.0752

###

Settings: in isopropanol, 303.15 K
Measurement label: solubility (mole fraction)
// return a plain number; no unit text

Requested field: solubility (mole fraction). Item: `CC(C)(C)OC(=O)N[C@@H](CCCN=C(N)N[N+](=O)[O-])C(=O)O` 0.0127

###

Conditions: in isopropanol, 308.15 K
Measurement label: solubility (mole fraction)
// return a plain number; no unit text

Requested field: solubility (mole fraction). Item: `CC(C)(C)OC(=O)N[C@@H](CCCN=C(N)N[N+](=O)[O-])C(=O)O` 0.0152

###

Settings: in isopropanol, 288.15 K
Measurement label: solubility (mole fraction)
// return a plain number; no unit text

Requested field: solubility (mole fraction). Item: `CC(C)(C)OC(=O)N[C@@H](CCCN=C(N)N[N+](=O)[O-])C(=O)O` 0.0067

###

Conditions: in ethanol, 283.15 K
Measurement label: solubility (mole fraction)
// return a plain number; no unit text

Requested field: solubility (mole fraction). Item: `CC(C)(C)OC(=O)N[C@@H](CCCN=C(N)N[N+](=O)[O-])C(=O)O` 0.015

###

Conditions: in ethyl acetate, 308.15 K
Measurement label: solubility (mole fraction)
// return a plain number; no unit text

Requested field: solubility (mole fraction). Item: `CC(C)(C)OC(=O)N[C@@H](CCCN=C(N)N[N+](=O)[O-])C(=O)O` 0.0013
